For each record, write down the corresponding 450 nm light absorption.
Target entity: T1, hOX40-EC-His (human, UniProt P43489 29-214)
T1 construct: extracellular domain; bought protein; also called recombinant human OX40 antigen protein; human OX40 extracellular segment antigen; not shown: 6 His label
T1 sequence (looked up): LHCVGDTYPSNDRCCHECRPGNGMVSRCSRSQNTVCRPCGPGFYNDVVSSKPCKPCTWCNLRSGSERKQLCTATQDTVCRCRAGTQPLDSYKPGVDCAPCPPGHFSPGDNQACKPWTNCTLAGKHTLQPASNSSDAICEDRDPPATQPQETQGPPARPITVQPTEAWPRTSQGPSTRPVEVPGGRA
Procedure details: ELISA, supernatant diluted 100 times, coated OX40 (CK60)
One number for each entry, in OD450.

{"columns": ["Binder", "Result value"],
 "data": [
  ["24B9-10 (antibody, V domains shown, hybridoma antibody, tested as culture supernatant) VH: QVQLQESGPGLVKPSGTLSLTCAVSGGSISSSNWWTWVRQPPGKGLEWIGEIYHSGSTNYNPSLKSRVTISVDKSKNQFSLKLSSVTAADTAVYYCARTGPIVTTEYWGQGTLVTVSS VL: EIVLTQSPGTLSLSPGERATLSCRASQSVSSGYLAWYQQKPGQAPRLLIYGASIRATGIPDRFSGSGSGTDFTLTISRLEPEDFALYYCQQYGSSPLTFGGGTKVEIKR", 0.574],
  ["17D5-11 (antibody, V domains shown, hybridoma antibody, tested as culture supernatant) VH: QVQLQESGPGLVKPSETLSLTCAVSGGSINSTNWWSWVRQPPGKGLEWIGEIYHSGSTNYNPSLKSRVTISVDKSKNQFSLKLSSVTAADTAVYYCARGGAVALDYWGQGTLVTVSS VL: EIVLTQSPGPLSLSPGDRATLSCRASQTVSSSYLAWYLQKPGQAPRLLIYGASIRATGIPDRFSGSGSGTDFTLTISRLEPEDFAVYYCQQYGNSPITFGQGTRLEIKR", 2.32]
]}

Now examine the next entry.
Briefly, 450 nm light absorption measured for 24A12-12 (antibody, V domains shown, hybridoma antibody, tested as culture supernatant) VH: QVQLQESGPGLVKPAGTLSLTCAVSGGSISSSNWWNWVRQPPGKGLEWIGEIYHSGSTNYNPSLKSRVTISVDTSKNQFSLKLTSVTAADTAVYYCARTGPTVTTDYWGQGTLVTVSS VL: EIVLTQSPGTLSLSPGERATLSCRASQSVSSSYLAWYQQKPGQAPRLLIYGASYRATGMPERFSGSGSGTDFTLTISRLEPEDFAIYYCQQYGRSPLTFGGGTKVEIKR : 2.8
